PROTOCOL_TEXT: Volume of distribution at steady state in rat at 1 mg/kg, iv or 3 mg/kg, po by LC-MS/MS analysis
Type: ADME, organism-based
MEASUREMENT_PARAMETERS: in vivo, read-out: Vdss
MEASUREMENT_LABEL: Vd (L/kg)

GIVEN_SMILES: Cc1cc([C@@]23c4ccccc4C(=O)N2CCN3C(=O)c2ccc(F)c(F)c2)ccc1Cl
UNITS_LABEL: L/kg
VALUE_MEASURED: 7.4

====

PROTOCOL_TEXT: Aqueous solubility of the compound
Assay type: physicochemical
MEASUREMENT_PARAMETERS: buffer
Let's look at some molecules and their measured solubility.

GIVEN_SMILES: O=C(c1ccc(F)c(F)c1)N1CCN2C(=O)c3ccccc3[C@@]12c1ccc(N2CCC(F)(F)CC2)cc1
solubility: 10000 µg/mL

GIVEN_SMILES: CN(c1ccc([C@@]23c4ccccc4C(=O)N2CCN3C(=O)c2ccc(F)c(F)c2)cc1)C1CCC1
solubility: 10000 µg/mL

GIVEN_SMILES: O=C(c1ccc(F)c(F)c1)N1CCN2C(=O)c3ccccc3[C@@]12c1ccc(N2CCCC(F)(F)C2)cc1
solubility: 10000 µg/mL

GIVEN_SMILES: O=C(c1ccc(F)c(F)c1)N1CCN2C(=O)c3ccccc3[C@@]12c1ccc(Cl)cc1
solubility: < 10 µg/mL

====

In this section we review reported IC50 values for a set of molecules.
ASSAY_TARGET: Muscarinic acetylcholine receptor M5 (Homo sapiens, UniProt P08912)
PROTOCOL_TEXT: Negative allosteric modulation of human M5 receptor expressed in CHO cells assessed as inhibition of acetyl choline-induced calcium mobilization preincubated for 150 secs followed by acetyl choline addition by Fluo-4-AM dye based fluorescence assay
Assay type: functional, cell-based
MEASUREMENT_PARAMETERS: read-out: pIC50 (converted)

MOLECULE: O=C(c1ccc(F)c(F)c1)N1CCN2C(=O)c3ccccc3[C@@]12c1ccc(N2CCc3ccccc3C2)cc1
IC50, µM: 7.76
--
MOLECULE: O=C(c1ccc(F)c(F)c1)N1CCN2C(=O)c3ccccc3[C@@]12c1ccc(N2CC[C@@H](F)C2)cc1
IC50, µM: 3.02
--
MOLECULE: O=C(c1ccc(F)c(F)c1)N1CCN2C(=O)c3ccccc3[C@@]12c1ccc(NC2CCC2)cc1
IC50, µM: 6.76
--
MOLECULE: CC1Cc2ccccc2N1c1ccc([C@@]23c4ccccc4C(=O)N2CCN3C(=O)c2ccc(F)c(F)c2)cc1 (some centres undefined)
IC50, µM: 4.47

====

Below, each of the molecules is paired with its reported IC50 value.
ASSAY_TARGET: Muscarinic acetylcholine receptor M5 (Homo sapiens)
Sequence (P08912 whole entry): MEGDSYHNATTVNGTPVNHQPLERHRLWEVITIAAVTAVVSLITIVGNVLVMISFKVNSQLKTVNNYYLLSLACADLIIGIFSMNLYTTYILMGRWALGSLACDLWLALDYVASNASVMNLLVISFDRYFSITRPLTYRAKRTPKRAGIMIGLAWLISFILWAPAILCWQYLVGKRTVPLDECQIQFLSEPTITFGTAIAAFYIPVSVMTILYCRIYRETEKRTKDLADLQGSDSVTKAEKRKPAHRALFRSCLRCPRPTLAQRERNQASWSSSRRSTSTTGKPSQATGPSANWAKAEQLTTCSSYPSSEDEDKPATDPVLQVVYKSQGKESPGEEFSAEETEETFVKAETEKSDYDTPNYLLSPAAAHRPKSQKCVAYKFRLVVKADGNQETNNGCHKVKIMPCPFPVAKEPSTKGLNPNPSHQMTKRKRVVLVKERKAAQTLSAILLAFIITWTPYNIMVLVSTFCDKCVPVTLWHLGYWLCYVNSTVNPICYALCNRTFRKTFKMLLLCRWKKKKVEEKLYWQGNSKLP
PROTOCOL_TEXT: Negative allosteric modulation of human M5 receptor expressed in CHO cells assessed as inhibition of acetyl choline-induced calcium mobilization preincubated for 150 secs followed by acetyl choline addition by Fluo-4-AM dye based fluorescence assay
Assay type: functional, cell-based
MEASUREMENT_PARAMETERS: read-out: IC50

GIVEN_SMILES: O=C(c1ccc(F)c(F)c1)N1CCN2C(=O)c3ccccc3[C@@]12c1ccc(N2CCC(C(F)(F)F)CC2)cc1
IC50: 3.42 µM

GIVEN_SMILES: O=C(c1ccc(F)c(F)c1)N1CCN2C(=O)c3ccccc3[C@@]12c1ccc(N2CCc3ccccc3C2)cc1
IC50: 8.21 µM

GIVEN_SMILES: O=C(c1ccc(F)c(F)c1)N1CCN2C(=O)c3ccccc3[C@@]12c1ccc(N2CCC[C@H]2c2cccnc2)cc1
IC50: 3.5 µM

GIVEN_SMILES: O=C(c1ccc(F)c(F)c1)N1CCN2C(=O)c3ccccc3[C@@]12c1ccc(N2CC3(C2)CC(F)(F)C3)cc1
IC50: > 10 µM

GIVEN_SMILES: O=C(c1ccc(F)c(F)c1)N1CCN2C(=O)c3ccccc3[C@@]12c1ccc(N2CCCC(F)(F)C2)cc1
IC50: 1.46 µM
